Data credit: ChEMBL document CHEMBL5236670

Listing of entries alongside the reported remaining at 10 min, 0.5 µM.
- assay_notes: Metabolic stability in human liver microsomes assessed as compound remaining at 0.5 uM after 10 mins
- Assay type: ADME, Microsome
- run_conditions: read-out: Stability

// below: answered molecules
{"smiles_repr": "Cc1ccncc1NC(=O)c1ccnc(NC(=O)C2CC2)c1", "assay_metric": "remaining at 10 min, 0.5 µM", "recorded_result": "93%"}
{"smiles_repr": "O=C(Nc1cncc(-c2ccccc2F)c1)c1ccnc(NC(=O)C2CC2)c1", "assay_metric": "remaining at 10 min, 0.5 µM", "recorded_result": "88%"}
{"smiles_repr": "CC(C)c1ccncc1NC(=O)c1ccnc(NC(=O)C2CC2)c1", "assay_metric": "remaining at 10 min, 0.5 µM", "recorded_result": "87%"}
{"smiles_repr": "CC1(C)CN(c2ccncc2NC(=O)c2ccnc(NC(=O)C3CC3)c2)CCO1", "assay_metric": "remaining at 10 min, 0.5 µM", "recorded_result": "35%"}
{"smiles_repr": "C[C@@H]1CN(c2ccncc2NC(=O)c2ccnc(NC(=O)C3CC3)c2)CCO1", "assay_metric": "remaining at 10 min, 0.5 µM", "recorded_result": "56%"}
{"smiles_repr": "C[C@@H]1COCCN1c1ccncc1NC(=O)c1ccnc(NC(=O)C2CC2)c1", "assay_metric": "remaining at 10 min, 0.5 µM", "recorded_result": "4%"}

Recorded result, C[C@@H]1CN(c2ccncc2NC(=O)c2ccnc(NC(=O)C3CC3)c2)C[C@H](C)O1 , remaining at 10 min, 0.5 µM: 34%

// remaining at 10 min, 0.5 µM lookup, molecule = O=C(Nc1cnccc1C1CCCCC1)c1ccnc(NC(=O)C2CC2)c1 , result: 1%

The recorded remaining at 10 min, 0.5 µM for C[C@H]1COCCN1c1ccncc1NC(=O)c1ccnc(NC(=O)C2CC2)c1 is 9%

// remaining at 10 min, 0.5 µM lookup, molecule = O=C(Nc1cnccc1C(F)(F)F)c1ccnc(NC(=O)C2CC2)c1 , result: 99%

remaining at 10 min, 0.5 µM in this record for C[C@H]1CN(c2ccncc2NC(=O)c2ccnc(NC(=O)C3CC3)c2)CCO1 : 66%

----------
These compounds were tested on Glycogen synthase kinase-3 beta (Homo sapiens); pIC50 is the recorded read-out.
Sequence (P49841 whole entry): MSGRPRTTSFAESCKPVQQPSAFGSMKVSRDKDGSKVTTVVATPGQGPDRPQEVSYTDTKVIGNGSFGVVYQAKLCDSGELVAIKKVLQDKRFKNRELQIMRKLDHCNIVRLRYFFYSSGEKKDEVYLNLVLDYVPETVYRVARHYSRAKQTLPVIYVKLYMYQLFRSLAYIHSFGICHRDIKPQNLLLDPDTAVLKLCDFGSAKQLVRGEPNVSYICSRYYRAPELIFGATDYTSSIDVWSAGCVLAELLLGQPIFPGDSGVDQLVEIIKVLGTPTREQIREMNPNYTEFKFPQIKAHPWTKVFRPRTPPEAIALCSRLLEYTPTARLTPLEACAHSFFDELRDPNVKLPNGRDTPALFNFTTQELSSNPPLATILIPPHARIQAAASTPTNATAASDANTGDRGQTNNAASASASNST
Units for pIC50: none; it is -log10 of a concentration expressed in mol/L.

Look over these answered cases.
{"compound": "O=C(Nc1cnccc1-c1ccc(Cl)cc1)c1ccnc(NC(=O)[C@H]2C[C@@H](F)C2)c1", "assay_metric": "pIC50", "recorded_result": 8.16}
{"compound": "O=C(Nc1cnccc1C(O)C(F)(F)F)c1ccnc(NC(=O)C2CC2)c1 (configuration not stated)", "assay_metric": "pIC50", "recorded_result": 8.44}
{"compound": "O=C(Nc1cnccc1N1CCC(F)(F)CC1)c1ccnc(NC(=O)[C@H]2C[C@@H](Cl)C2)c1", "assay_metric": "pIC50", "recorded_result": 9.80}
{"compound": "CC(C)C(=O)Nc1cc(C(=O)Nc2cnccc2OCCC(C)(C)O)ccn1", "assay_metric": "pIC50", "recorded_result": 8.55}
{"compound": "O=C(Nc1cnccc1-c1ccccc1)c1ccnc(NC(=O)C2CCC2)c1", "assay_metric": "pIC50", "recorded_result": 8.24}

Measured on Glycogen synthase kinase-3 beta (Homo sapiens), O=C(Nc1cncc(-c2ccccc2)c1)c1ccnc(NC(=O)C2CC2)c1 has a documented pIC50 of 8.05

Hey, Glycogen synthase kinase-3 beta (Homo sapiens) data for CC(C)(O)c1ccncc1NC(=O)c1ccnc(NC(=O)C2CC2)c1 : pIC50 came out at 10.00

----------
The entries below are paired with their reported remaining at 10 min, 0.5 µM.
- assay_notes: Metabolic stability in human liver microsomes assessed as compound remaining at 0.5 uM after 10 mins
- Assay type: ADME, Microsome
- run_conditions: read-out: Stability
Numbers only; they are read as %.

Recorded results for 6 molecules are shown here.
{"molecule": "CC1(C)COCCN1c1ccncc1NC(=O)c1ccnc(NC(=O)C2CC2)c1", "recorded_result": 0.9}
{"molecule": "O=C(Nc1cnccc1N1CCC(F)(F)CC1)c1ccnc(NC(=O)C2CC2)c1", "recorded_result": 25}
{"molecule": "O=C(Nc1cnccc1N1CCOCC1)c1ccnc(NC(=O)C2CC2)c1", "recorded_result": 84}
{"molecule": "O=C(Nc1cnccc1C(O)C(F)(F)F)c1ccnc(NC(=O)C2CC2)c1 (stereo unspecified)", "recorded_result": 86}
{"molecule": "CC(C)(O)c1ccncc1NC(=O)c1ccnc(NC(=O)C2CC2)c1", "recorded_result": 87}
{"molecule": "O=C(Nc1cnccc1C(=O)C(F)(F)F)c1ccnc(NC(=O)C2CC2)c1", "recorded_result": 85}

Entry C=C(C)c1ccncc1NC(=O)c1ccnc(NC(=O)C2CC2)c1 — recorded remaining at 10 min, 0.5 µM = 88

Sure, the documented remaining at 10 min, 0.5 µM for O=C(Nc1cnccc1N1CCCCC1)c1ccnc(NC(=O)C2CC2)c1 is 17

Looking up O=C(Nc1cnccc1C1CCC1)c1ccnc(NC(=O)C2CC2)c1 , I found its remaining at 10 min, 0.5 µM recorded as 72

For this molecule ( O=C(Nc1cnccc1C1CCCC1)c1ccnc(NC(=O)C2CC2)c1 ), measured remaining at 10 min, 0.5 µM is 7

Reported remaining at 10 min, 0.5 µM ( CC(O)c1ccncc1NC(=O)c1ccnc(NC(=O)C2CC2)c1 (stereo unspecified) ) = 100

----------
# remaining at 10 min, 0.5 µM per entry
- assay_notes: Metabolic stability in rat liver microsomes assessed as compound remaining at 0.5 uM after 10 mins
- Format: ADME, Microsome
- run_conditions: read-out: Stability
Respond numerically; units are % and should not be typed.

Below: 2 molecules and their reported remaining at 10 min, 0.5 µM.
{"molecule": "CC(C)c1ccncc1NC(=O)c1ccnc(NC(=O)C2CC2)c1", "remaining at 10 min, 0.5 µM / %": 78}
{"molecule": "O=C(Nc1cnccc1N1CCCCC1)c1ccnc(NC(=O)C2CC2)c1", "remaining at 10 min, 0.5 µM / %": 6}

// sample C=C(C)c1ccncc1NC(=O)c1ccnc(NC(=O)C2CC2)c1 , its remaining at 10 min, 0.5 µM was 57

Consider O=C(Nc1cnccc1N1CCOCC1)c1ccnc(NC(=O)C2CC2)c1 . Its measured remaining at 10 min, 0.5 µM is 63

remaining at 10 min, 0.5 µM for C[C@@H]1CN(c2ccncc2NC(=O)c2ccnc(NC(=O)C3CC3)c2)CCO1 is 36

# remaining at 10 min, 0.5 µM (molecule: O=C(Nc1cnccc1N1CCC(F)(F)CC1)c1ccnc(NC(=O)C2CC2)c1 ) is 6

Lab note: measured remaining at 10 min, 0.5 µM of O=C(Nc1cnccc1C(O)C(F)(F)F)c1ccnc(NC(=O)C2CC2)c1 (stereo unspecified) was 82

Kindly note the recorded remaining at 10 min, 0.5 µM for C[C@H]1COCCN1c1ccncc1NC(=O)c1ccnc(NC(=O)C2CC2)c1 , which is 3

The molecule listed as CC1(C)COCCN1c1ccncc1NC(=O)c1ccnc(NC(=O)C2CC2)c1 shows remaining at 10 min, 0.5 µM equal to 0.4

----------
- assay_notes: Metabolic stability in mouse liver microsomes assessed as compound remaining at 0.5 uM after 10 mins
- Format: ADME, Microsome
- run_conditions: read-out: Stability
assay_metric: remaining at 10 min, 0.5 µM (%)
Give just the numeric value; % need not be written.

Below: 8 compounds and their reported remaining at 10 min, 0.5 µM.
{"compound": "C[C@@H]1CN(c2ccncc2NC(=O)c2ccnc(NC(=O)C3CC3)c2)CCO1", "remaining at 10 min, 0.5 µM / %": 3}
{"compound": "CC(C)(O)c1ccncc1NC(=O)c1ccnc(NC(=O)C2CC2)c1", "remaining at 10 min, 0.5 µM / %": 27}
{"compound": "O=C(Nc1cnccc1C1CCCC1)c1ccnc(NC(=O)C2CC2)c1", "remaining at 10 min, 0.5 µM / %": 0.5}
{"compound": "CC1(C)CN(c2ccncc2NC(=O)c2ccnc(NC(=O)C3CC3)c2)CCO1", "remaining at 10 min, 0.5 µM / %": 0.4}
{"compound": "C[C@H]1COCCN1c1ccncc1NC(=O)c1ccnc(NC(=O)C2CC2)c1", "remaining at 10 min, 0.5 µM / %": 0.2}
{"compound": "O=C(Nc1cnccc1N1CCCCC1)c1ccnc(NC(=O)C2CC2)c1", "remaining at 10 min, 0.5 µM / %": 1}
{"compound": "O=C(Nc1cnccc1C1CCCCC1)c1ccnc(NC(=O)C2CC2)c1", "remaining at 10 min, 0.5 µM / %": 0.6}
{"compound": "C[C@@H]1CN(c2ccncc2NC(=O)c2ccnc(NC(=O)C3CC3)c2)C[C@H](C)O1", "remaining at 10 min, 0.5 µM / %": 4}

Documented remaining at 10 min, 0.5 µM of O=C(Nc1cnccc1C(O)C(F)(F)F)c1ccnc(NC(=O)C2CC2)c1 (stereo not given) : 35

For O=C(Nc1cnccc1C(=O)C(F)(F)F)c1ccnc(NC(=O)C2CC2)c1 the compound record lists remaining at 10 min, 0.5 µM as 57
